B1: HDV Ribozyme (parent)
chain: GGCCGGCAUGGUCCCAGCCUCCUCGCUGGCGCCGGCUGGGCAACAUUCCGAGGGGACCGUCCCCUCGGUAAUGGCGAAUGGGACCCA

Variants of: B1
Measurement Protocol: self-cleavage, relative activity (ratio to wild type); higher = more cleavage; co-transcriptional
Readings of self-cleavage for the listed variants
In your answer, state the number alone without any accompanying words.

1. G10C G59A    0.895
2. C30G G34C    0.107
3. C15G U20G    0
4. G50A A77C    0.227

[in] Need self-cleavage of A8C G35U , thanks.
[out] 0.269

[in] Please give the result for C14G A71U too.
[out] 0.529

[in] Please give the result for U46C U60G too.
[out] 0.755

[in] Please give the result for G6C U79C too.
[out] 0.0405

[in] Please give the result for G1A G55A too.
[out] 0.0519

[in] Please give the result for C21U G50U too.
[out] 0.141

[in] Please give the result for G40U U65C too.
[out] 0.7

[in] Please give the result for U12C C64A too.
[out] 0.344
